target: C-X-C chemokine receptor type 6 (Homo sapiens); assay: CXCR6 beta-arrestin signal inhibition by hits – cell-based, single concentration, luminescence, confirmation (AID 602409); settings: CHO-K1 CXCR6 PathHunter beta-arrestin, at 20 µM;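 also: receptor stimulated with 10 nM CXCL16 agonist; beta-galactosidase fragment complementation upon beta-arrestin recruitment to receptor; plate controls were CXCL16 plus DMSO for no effect and DMSO without CXCL16 for full effect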
The other results are listed elsewhere or left out. Activity calls are given as the source filed them.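 The calls were made as follows: active = mean inhibition over four retests above 40%; inactive = the rest.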
Labels: class 1 = active, class 0 = inactive

| MOLECULE | EXPERIMENTAL_TARGET | CLASS |
| --- | --- | --- |
| Cc1cc(C(=O)NCCCc2ccccc2)no1 | C-X-C chemokine receptor type 6 (Homo sapiens) | class 0 |
| COc1ccc(-c2csc(Cc3nc(O)cs3)n2)cc1 | C-X-C chemokine receptor type 6 (Homo sapiens) | class 1 |
| Cc1ccc(-n2[nH]c(C)c(/C=N/N3C(=O)c4cccc5cccc(c45)C3=O)c2=O)cc1 | C-X-C chemokine receptor type 6 (Homo sapiens) | class 1 |
| O=C1C=CC(=O)N1c1ccc(N2CCCCC2)cc1 | C-X-C chemokine receptor type 6 (Homo sapiens) | class 1 |
